assay: inhibitors of larval lipid processing in zebrafish, primary screen, whole organism, PED6 fluorescence, gall bladder and intestine (AID 686); conditions: Zebrafish larvae PED6 lipid processing, fluorescence scoring; screened at 20 µM (by protocol);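 further: larvae 5 to 7 days old with five fish per well; signal comes from phospholipase A2 cleavage of quenched PED6 carried via bile; overnight exposure to compound and PED6 before scoring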
Active and inactive are the calls of the source.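 How the source made its calls: active means a full or partial loss of lipid-probe fluorescence in the fish gall bladder, intestine or both, judged by eye; inactive means no fluorescence loss, or compound toxic to the fish.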
recorded metric: outcome

# count of solved cases: 8
- COc1ccc(OC)c(N=C(C)C2=C(O)COC2=O)c1: inactive; toxic
- CC(=O)Oc1ccc(C(c2ccc(OC(C)=O)cc2)c2ccccn2)cc1: inactive
- O=C(CCN1CCCC1Cc1ccccc1)c1ccc2c(c1)OCCO2 (configuration not stated): inactive
- Cc1cc(C)n(C(=O)CNC(=O)c2ccc3c(c2)OCCO3)n1: inactive
- Clc1ccc2nc(N3CCNCC3)nc(-c3ccccc3)c2c1: inactive
- COc1ccc(OCC(=O)OCCN(C)C)cc1: inactive
- Cc1ccc(N2CN=c3s/c(=C\c4cccnc4)c(=O)n3C2)cc1: inactive
- CCCOc1ccc(Cl)cc1CN1CCOCC1: inactive

For every record below, what is its outcome?
1. CC(C)NCC(O)COc1ccc(CC(N)=O)cc1 (configuration not stated)
2. O=c1/c(=C/c2ccccn2)sc2n1CN(c1ccccc1)CN=2
3. COc1cc(NS(=O)(=O)c2ccc(N)cc2)ncn1
4. NS(=O)(=O)c1cc2c(cc1Cl)NCNS2(=O)=O
5. Cc1cn([C@H]2C=C[C@@H](CO)O2)c(=O)[nH]c1=O
6. CC1CCc2cc(F)cc3c(=O)c(C(=O)O)cn1c23 (configuration not stated)
7. Cc1cc(N/C=C/C(=O)c2cccc3ccccc23)no1
8. OC(CCN1CCCCC1)(c1ccccc1)C1CCCCC1 (configuration not stated)

A)
["inactive", "inactive", "inactive", "inactive", "inactive", "inactive", "inactive", "inactive"]
